Where do the numbers come from? From patent US20260209211A1.

# Test system: HGC27 (Human Gastric Cancer Cell)
# Protocol summary: Bioactivity assay for HGC27 cell growth inhibition (CellTiter-Glo)
# Format: cell-based
# Condition set: HGC-27, HGC27 cells, 24 hours, CellTiter-Glo, highest concentration 10 μM, read-out: HGC27 CTG IC50
Property: IC50

Consider the reported IC50 for these compounds:
{"columns": ["Compound", "IC50"],
 "data": [
  ["OCc1cccc2c3ccc(CNc4ncc(C(F)(F)F)c(OC5COC5)n4)cc3nn12 [Compound 26]", "387 nM"],
  ["FC(F)(F)c1cnc(NCc2ccc3c(c2)[nH]c2ncccc23)nc1OC1COC1 [Compound 45]", "89 nM"],
  ["CC[C@@H](Nc1nc(NCc2ccc3c(c2)[nH]c2c(CNC(C)=O)ccnc23)ncc1C(F)(F)F)C(N)=O [Compound 47]", "266 nM"],
  ["CC[C@@H](Nc1nc(NCc2ccc3c(c2)[nH]c2c(CO)ccnc23)ncc1C(F)(F)F)[C@@H](C)O [Compound 23]", "13 nM"],
  ["C[C@@H](O)[C@@H](C)Oc1nc(NCc2ccc3c(c2)[nH]c2c(CN)ccnc23)ncc1C(F)(F)F [Compound 27]", "21 nM"],
  ["OCc1ccnc2c1[nH]c1cc(CNc3ncc(C(F)(F)F)c(N[C@@H]4CNC[C@@H]4O)n3)ccc12 [Compound 78]", "244 nM"]
]}

*Q* Entry under review: NCc1cccc2c3ccc(CNc4ncc(C(F)(F)F)c(OC5COC5)n4)cc3nn12 [Compound 28] . Reported IC50?
*A* 313 nM
